Recorded values, source PubChem BioAssay (NCI).

# TGI annotations
System: NCI-H460 lung
assay_protocol: NCI tumour cell line growth inhibition, 48 h
Give just the number in µM; leave the unit off.

Cc1[nH]c(-c2ccccc2)c(O)c1C(=O)OC12CC3CC(CC(C3)C1)C2
21.3

Request: # returns recorded TGI (system: NCI-H460 lung) for `OCc1cn(Cc2ccc(Cl)cc2)c2ccccc12`
Result: 18.5

Request: Field entry: C=C1C(=O)OC2C1C(=O)C/C(C)=C/CCC1(C)OC21 (configuration not stated)
Result: 39.7

Request: Field entry: O=C(c1ccccc1)C(c1ccccc1)C1(O)C(=O)Nc2c(Cl)ccc(Cl)c21 (configuration not stated)
Result: 56.8

Request: Field entry: `CCOC(=O)C(Cc1c(C=O)[nH]c2ccccc12)(NC(=O)c1ccccc1)C(=O)OCC`
Result: 59.7

Request: Field entry: `O=C(c1ccccc1)c1c(C(F)(F)F)n([O-])c2ccc(F)cc2[n+]1=O`
Result: 2.29

Request: Field entry: CN1CCC(SC2Cc3cc(Cl)ccc3Sc3ccccc32)CC1 (configuration not stated)
Result: 31.4

Request: Field entry: `COc1ccc2nc3cc(Cl)ccc3c(Nc3ccc(O)c(CN4CCN(C)CC4)c3)c2c1`
Result: 3.22

Request: Field entry: `c1ccc(CSCCNCCN(CCNCCSCc2ccccc2)CCNCCSCc2ccccc2)cc1`
Result: 2.71

Request: Field entry: `O=c1ssc2c1Nc1c(ssc1=O)S2`
Result: 36.4

Request: Field entry: `COc1cc2c(cc1OC)[C@@H]1C(=O)c3cc4c(cc3[C@@H]1N(CCN(C)C)C2=O)OCO4`
Result: 2.36

Request: Field entry: `O=C1/C(=C/c2ccc(O)c(CN3CCCCC3)c2)CCC/C1=C\c1ccc(O)c(CN2CCCCC2)c1`
Result: 13.6

Request: Field entry: `Cc1ccccc1NC(=O)c1cc2cc(N=Nc3ccccc3C(=O)O)ccc2oc1=O`
Result: 60

---

System: HS 578T breast
assay_protocol: NCI tumour cell line growth inhibition, 48 h
outcome_measure: TGI

Recorded TGI, per entry:
COc1cc(Nc2c(C#N)[n+]([O-])c3ccccc3[n+]2[O-])cc(OC)c1OC
> 100 µM
O=C1CSC(c2cccc([N+](=O)[O-])c2)N1c1ccc(-c2ccc(-n3c(-c4ccccc4)nc4ccccc4c3=O)cc2)cc1 (stereo not drawn)
> 100 µM

Request: Value lookup for TGI; key = `COc1cc(/C=C2\CN(S(=O)(=O)c3ccc(C)cc3)C/C(=C\c3cc(CN4CCOCC4)c(O)c(OC)c3)C2=O)cc(CN2CCOCC2)c1O`
Result: 19.8 µM

---

# TGI annotations
Tested on: M14 melanoma
assay_protocol: NCI tumour cell line growth inhibition, 48 h

Recorded TGI, per entry:
CC(C)CC(NC(=O)C(CSc1ccc([N+](=O)[O-])cc1)Cc1ccccc1)C(=O)Nc1ccccc1 (configuration not stated)
> 100 µM
COc1ccc(N2C(=O)/C(=C/c3ccc(N(CCC#N)CCC#N)cc3C)N=C2/C=C\c2ccccc2)cc1
> 100 µM
COc1ccc(C(=O)c2c(C(C(=O)c3ccc(OC)cc3)C(=O)c3ccc(OC)cc3)n(C(=O)c3ccc(OC)cc3)c3ccccc23)cc1
> 100 µM
CN(C)CCOc1ccc2[nH]c(C(=O)N3CC(CCl)c4c3cc(NC(=O)OCc3ccc([N+](=O)[O-])cc3)c3ccccc43)cc2c1 (configuration not stated)
2.88 µM

Request: # returns recorded TGI (system: M14 melanoma) for `COc1ccc(-c2cc(=O)c3cc(C)cnc3[nH]2)cc1`
Result: 45.1 µM

Request: Field entry: `CCc1ccccc1NC(=O)C1=C(C)NC(C)=C(C(=O)Nc2ccccc2CC)C1c1cccc([N+](=O)[O-])c1`
Result: > 100 µM

Request: Field entry: `CN(C)c1ccc(/C=C(\C#N)c2nc(-c3cc4ccccc4oc3=O)cs2)cc1`
Result: > 50 µM

Request: Field entry: `COc1ccc(C(=O)/C=C/c2c(OC)cc(OC)cc2OC)c(OC)c1`
Result: > 100 µM

Request: Field entry: `COc1ccc(OC)c(C(=O)c2cccc(C(=O)c3cc(OC)ccc3OC)n2)c1`
Result: > 100 µM

Request: Field entry: COc1ccc([As]=[As]c2ccc(OC)c(NCS(=O)(=O)O)c2)cc1NCS(=O)(=O)O (configuration not stated)
Result: 5.69 µM

Request: Field entry: O=CC12c3ccccc3C(c3ccccc31)C1C(=O)NC(=O)C12 (configuration not stated)
Result: > 100 µM

Request: Field entry: CCCCN(CCCC)CC(C(=O)Nc1ccccc1)/C(C)=N\NC(=O)c1ccncc1 (configuration not stated)
Result: > 100 µM
